# target_entity: Nuclear receptor ROR-gamma (Homo sapiens, UniProt P51449)
# Sequence (P51449 whole entry, the tested form may be a part): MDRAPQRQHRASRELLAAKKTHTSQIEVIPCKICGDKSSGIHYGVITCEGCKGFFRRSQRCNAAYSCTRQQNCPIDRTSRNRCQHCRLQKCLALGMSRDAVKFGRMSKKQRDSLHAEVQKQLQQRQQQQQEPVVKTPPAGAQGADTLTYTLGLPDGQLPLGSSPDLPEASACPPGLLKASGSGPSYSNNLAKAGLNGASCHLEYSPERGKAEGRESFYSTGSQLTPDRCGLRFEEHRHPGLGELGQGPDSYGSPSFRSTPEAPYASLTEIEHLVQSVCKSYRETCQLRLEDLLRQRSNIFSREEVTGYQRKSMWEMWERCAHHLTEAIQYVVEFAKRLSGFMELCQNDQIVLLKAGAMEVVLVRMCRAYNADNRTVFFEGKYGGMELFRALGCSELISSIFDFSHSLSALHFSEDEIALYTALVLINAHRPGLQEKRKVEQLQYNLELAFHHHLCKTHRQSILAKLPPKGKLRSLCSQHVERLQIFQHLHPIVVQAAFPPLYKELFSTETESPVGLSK
# protocol_notes: Inhibition of human GAL4-DBD fused RORgammat LBD expressed in human Jurkat cells assessed as inhibition of receptor transactivation after 24 hrs by luciferase reporter gene assay
# Type: cell-based
quantity_name: IC50

Prompt line: Param item = Cc1c(C2(C(F)(F)F)CC2)nc(C2CC2)n1-c1c(Cl)ccc(N2CC3(CC(C(=O)O)C3)C2)c1Cl (single isomer, unassigned; atropisomer) ; retrieve measured IC50.
Response line: 151 nM

----------
# protocol_notes: Distribution coefficient of the compound, high-throughput logD using octanol-buffer at pH 7.4 by LC-MS/MS analysis shake flask method
# Type: physicochemical
quantity_name: logD
Give bare numbers.

In the examples that follow, each entry is paired with its recorded logD.
compound="Cc1c(C2(C(F)(F)F)CC2)nc(C2CC2)n1-c1c(Cl)ccc(N2CC3(CC(C(=O)O)C3)C2)c1Cl (single isomer, unassigned; atropisomer)" observed_measurement=2
compound="Cc1c(CC(C)C)nc(-c2ccc(Cl)o2)n1-c1c(Cl)ccc(N2CC(C(=O)O)C2)c1Cl (single isomer, unassigned; atropisomer)" observed_measurement=3

Consider the additional compound presented here.
Prompt line: Param item = Cc1c(C(F)(F)F)nc(-c2ccc(Cl)o2)n1-c1c(Cl)ccc(N2CC(c3nnn[nH]3)C2)c1Cl ; retrieve measured logD.
Response line: 2.5

----------
# protocol_notes: Volume of distribution at steady state in Sprague-Dawley rat at 1 mg/kg, iv
# Format: ADME, organism-based
# stated_conditions: in vivo, read-out: Vdss
quantity_name: Vd (L/kg)
Answers are plain numbers, in L/kg.

In the examples that follow, each entry is paired with its recorded Vd.
compound="Cc1c(CC(C)C)nc(-c2ccc(Cl)o2)n1-c1c(Cl)ccc(N2CC(C(=O)O)C2)c1Cl (single isomer, unassigned; atropisomer)" unit_annotation=L/kg observed_measurement=3.6
compound="Cc1c(C2(C(F)(F)F)CC2)nc(C2CC2)n1-c1c(Cl)ccc(N2CC3(CC(C(=O)O)C3)C2)c1Cl (single isomer, unassigned; atropisomer)" unit_annotation=L/kg observed_measurement=1

Consider the additional compound presented here.
Prompt line: Param item = Cc1c(C(F)(F)F)nc(-c2ccc(Cl)o2)n1-c1c(Cl)ccc(N2CC(C(=O)O)C2)c1Cl (single isomer, unassigned; atropisomer) ; retrieve measured Vd.
Response line: 4

----------
Would you kindly list K for each of these compounds?
# target_entity: Cytochrome P450 3A4 (Homo sapiens, UniProt P08684)
# Sequence (P08684 whole entry): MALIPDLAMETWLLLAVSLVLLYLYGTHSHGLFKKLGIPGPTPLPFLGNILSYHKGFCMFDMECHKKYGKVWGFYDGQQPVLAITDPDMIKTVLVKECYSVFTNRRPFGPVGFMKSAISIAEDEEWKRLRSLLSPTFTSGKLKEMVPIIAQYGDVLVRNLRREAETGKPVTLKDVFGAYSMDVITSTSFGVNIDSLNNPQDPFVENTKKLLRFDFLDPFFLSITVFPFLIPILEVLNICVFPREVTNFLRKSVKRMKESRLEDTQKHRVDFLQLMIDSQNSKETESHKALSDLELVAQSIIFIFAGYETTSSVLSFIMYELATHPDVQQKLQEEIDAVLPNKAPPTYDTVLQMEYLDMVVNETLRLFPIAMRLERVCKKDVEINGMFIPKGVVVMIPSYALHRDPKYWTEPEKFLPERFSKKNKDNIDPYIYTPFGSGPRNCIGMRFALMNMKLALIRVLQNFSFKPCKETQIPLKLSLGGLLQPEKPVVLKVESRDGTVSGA
# protocol_notes: Time dependent inhibition of CYP3A4 (unknown origin)
# Assay type: ADME
# Set-up: concentration or dose not given beside the values
One number for each entry, in min⁻¹.

compound="Cc1c(C2(C(F)(F)F)CC2)nc(C2CC2)n1-c1c(Cl)ccc(N2CC3(CC(C(=O)O)C3)C2)c1Cl (single isomer, unassigned; atropisomer)" quantity_name=K unit_annotation=min⁻¹ observed_measurement=0.005

Batch of 2 compounds: report K for each.
1. Cc1c(C(F)(F)F)nc(-c2ccc(Cl)o2)n1-c1c(Cl)ccc(N2CC(C(=O)O)C2)c1Cl (single isomer, unassigned; atropisomer)
2. Cc1c(C2(C(F)(F)F)CC2)nc(-c2ccc(Cl)o2)n1-c1c(Cl)ccc(NCC(C)(C)C(=O)O)c1Cl (single isomer, unassigned; atropisomer)

Response line:
1. 0.047
2. 0.011

----------
Would you kindly list logD for each of these compounds?
# protocol_notes: Distribution coefficient of the compound, high-throughput logD using octanol-buffer at pH 7.4 by LC-MS/MS analysis shake flask method
# Assay type: physicochemical
One number for each entry.

compound=Cc1c(C(F)(F)F)nc(-c2ccc(Cl)o2)n1-c1c(Cl)ccc(N2CC(CC(=O)O)C2)c1Cl observed_measurement=2.5
compound=CC(C)Cc1cn(-c2c(C#N)cccc2C#N)c(-c2cnco2)n1 observed_measurement=2
compound=N#Cc1cccc(C#N)c1-n1cc(C2CC2)nc1-c1cnco1 observed_measurement=1.1
compound="Cc1c(C(F)(F)F)nc(-c2ccc(Cl)o2)n1-c1c(Cl)ccc(N2CC(C(=O)O)C2)c1Cl (single isomer, unassigned; atropisomer)" observed_measurement=2.4
compound=Cc1c(C(F)(F)F)nc(-c2ccc(Cl)o2)n1-c1c(Cl)cccc1Cl observed_measurement=6.3

Batch of 2 compounds: report logD for each.
1. Cc1c(C2(C(F)(F)F)CC2)nc(-c2ccc(Cl)o2)n1-c1c(Cl)ccc(NCC(C)(C)C(=O)O)c1Cl (single isomer, unassigned; atropisomer)
2. Cc1c(C(F)(F)F)nc(-c2ccc(Cl)o2)n1-c1c(Cl)ccc(N2CC(C(N)=O)C2)c1Cl (single isomer, unassigned; atropisomer)

Response line:
3.2
4.9
